Run conditions: in n-propyl acetate, 278.15 K
Readout label: solubility (mole fraction)

> print(dat)
                                smiles.text               readout.label  recorded.measurement
1  CC(=O)O[C@]1(C(C)=O)CC[C@H]2[C@@H]3C[C@H](C)C4=CC(=O)CC[C@]4(C)[C@H]3CC[C@@]21C  solubility (mole fraction)                0.0032

----------
Run conditions: in n-propanol, 278.15 K
Readout label: solubility (mole fraction)

> print(dat)
                                smiles.text               readout.label  recorded.measurement
1  CC(=O)O[C@]1(C(C)=O)CC[C@H]2[C@@H]3C[C@H](C)C4=CC(=O)CC[C@]4(C)[C@H]3CC[C@@]21C  solubility (mole fraction)              0.000683

----------
Run conditions: in n-butyl acetate, 288.15 K
Readout label: solubility (mole fraction)

> print(dat)
                                smiles.text               readout.label  recorded.measurement
1  CC(=O)O[C@]1(C(C)=O)CC[C@H]2[C@@H]3C[C@H](C)C4=CC(=O)CC[C@]4(C)[C@H]3CC[C@@]21C  solubility (mole fraction)               0.00406

----------
Run conditions: in isopropanol, 293.15 K
Readout label: solubility (mole fraction)

> print(dat)
                                smiles.text  recorded.measurement
1  CC(=O)O[C@]1(C(C)=O)CC[C@H]2[C@@H]3C[C@H](C)C4=CC(=O)CC[C@]4(C)[C@H]3CC[C@@]21C              0.000945

----------
Run conditions: in n-butyl acetate, 283.15 K
Readout label: solubility (mole fraction)

> print(dat)
                                smiles.text  recorded.measurement
1  CC(=O)O[C@]1(C(C)=O)CC[C@H]2[C@@H]3C[C@H](C)C4=CC(=O)CC[C@]4(C)[C@H]3CC[C@@]21C                0.0035

----------
Run conditions: in isopropanol, 313.15 K
Readout label: solubility (mole fraction)

> print(dat)
                                smiles.text               readout.label  recorded.measurement
1  CC(=O)O[C@]1(C(C)=O)CC[C@H]2[C@@H]3C[C@H](C)C4=CC(=O)CC[C@]4(C)[C@H]3CC[C@@]21C  solubility (mole fraction)               0.00281

----------
Run conditions: in isobutanol, 323.15 K
Readout label: solubility (mole fraction)

> print(dat)
                                smiles.text               readout.label  recorded.measurement
1  CC(=O)O[C@]1(C(C)=O)CC[C@H]2[C@@H]3C[C@H](C)C4=CC(=O)CC[C@]4(C)[C@H]3CC[C@@]21C  solubility (mole fraction)               0.00789

----------
Run conditions: in acetone, 298.15 K
Readout label: solubility (mole fraction)

> print(dat)
                                smiles.text               readout.label  recorded.measurement
1  CC(=O)O[C@]1(C(C)=O)CC[C@H]2[C@@H]3C[C@H](C)C4=CC(=O)CC[C@]4(C)[C@H]3CC[C@@]21C  solubility (mole fraction)                0.0083

----------
Run conditions: in isopropanol, 303.15 K
Readout label: solubility (mole fraction)

> print(dat)
                                smiles.text  recorded.measurement
1  CC(=O)O[C@]1(C(C)=O)CC[C@H]2[C@@H]3C[C@H](C)C4=CC(=O)CC[C@]4(C)[C@H]3CC[C@@]21C               0.00166
